Assay: Ex vivo biodistribution of 68Ga-labeled tracers in PC-3 tumor-bearing mice
Settings: mouse, testes, intravenous; 1 h pi, n = 4; read-out: Testes uptake
Protocol: PET/CT imaging and biodistribution studies were conducted using male NOD.Cg-Rag1^tm1Mom Il2rg^tm1Wjl/SzJ (NRG) mice following previously published procedures. […] For ex vivo biodistribution studies, the mice were injected with the ^68Ga-labeled tracer (2–4 MBq) via a lateral caudal tail vein. […] Blood and organs/tissues of interest were collected, weighed, and counted using a gamma counter.
measurement name: tissue uptake at 1 h (%ID/g)
Give the quantity in %ID/g, number only.

| compound | tissue uptake at 1 h (%ID/g) |
| --- | --- |
| CC(C)C[C@@H](CN1CC(F)(F)C[C@H]1C(N)=O)NC(=O)[C@H](Cc1c[nH]cn1)NC(=O)CN(C)C(=O)[C@@H](NC(=O)[C@H](C)NC(=O)[C@H](Cc1c[nH]c2ccccc12)NC(=O)[C@H](CCC(N)=O)NC(=O)[C@@H](Cc1ccccc1)NC(=O)CN1CCC(NC(=O)CN2CCN(CC(=O)O)CCN(CC(=O)O)CCN(CC(=O)O)CC2)CC1)C(C)C [[^68Ga]Ga-LW02080, metal not drawn] | 0.12 |

Please look at the following compound next.
Exam item: // lookup tissue uptake at 1 h for CC(C)C[C@H](NC(=O)[C@H](Cc1cnc[nH]1)N(C)C(=O)CNC(=O)[C@@H](NC(=O)[C@H](C)NC(=O)[C@H](Cc1c[nH]c2ccccc12)NC(=O)[C@H](CCC(N)=O)NC(=O)[C@@H](Cc1ccccc1)NC(=O)CN1CCC(NC(=O)CN2CCN(CC(=O)O)CCN(CC(=O)O)CCN(CC(=O)O)CC2)CC1)C(C)(C)C)C(=O)N1CC(F)(F)C[C@H]1C(N)=O [[^68Ga]Ga-LW02060, metal not drawn]
Marked response: 0.2

====

assay: Ex vivo biodistribution of 177Lu-labeled ligands in PC-3 tumor-bearing mice; settings: mouse, spleen, intravenous, 120 h pi, n = 5; read-out: Spleen uptake
measurement name: tissue uptake at 120 h (%ID/g)
Only the number, expressed in %ID/g, is required.

| compound | scale unit | tissue uptake at 120 h |
| --- | --- | --- |
| CC(C)C[C@H](NC(=O)[C@H](Cc1cnc[nH]1)N(C)C(=O)CNC(=O)[C@@H](NC(=O)[C@H](C)NC(=O)[C@H](Cc1c[nH]c2ccccc12)NC(=O)[C@H](CCC(N)=O)NC(=O)[C@@H](Cc1ccccc1)NC(=O)CN1CCC(NC(=O)CN2CCN(CC(=O)O)CCN(CC(=O)O)CCN(CC(=O)O)CC2)CC1)C(C)(C)C)C(=O)N1CC(F)(F)C[C@H]1C(N)=O [[^177Lu]Lu-LW02060, metal not drawn] | %ID/g | 0.05 |

Let us examine a further case.
Exam item: Quick check: tissue uptake at 120 h of CC(C)C[C@@H](CN1CC(F)(F)C[C@H]1C(N)=O)NC(=O)[C@H](Cc1c[nH]cn1)NC(=O)CN(C)C(=O)[C@@H](NC(=O)[C@H](C)NC(=O)[C@H](Cc1c[nH]c2ccccc12)NC(=O)[C@H](CCC(N)=O)NC(=O)[C@@H](Cc1ccccc1)NC(=O)CN1CCC(NC(=O)CN2CCN(CC(=O)O)CCN(CC(=O)O)CCN(CC(=O)O)CC2)CC1)C(C)C [[^177Lu]Lu-LW02080, metal not drawn] ?
Marked response: 0.03

====

experiment: Ex vivo biodistribution of 68Ga-labeled tracers in PC-3 tumor-bearing mice; details: mouse, PC-3 tumor, intravenous; 1 h pi, n = 4; read-out: PC-3 tumor uptake
measurement name: tissue uptake at 1 h
Include the unit right after the number.

| compound | result |
| --- | --- |
| CC(C)C[C@@H](CN1CC(F)(F)C[C@H]1C(N)=O)NC(=O)[C@H](Cc1c[nH]cn1)NC(=O)CN(C)C(=O)[C@@H](NC(=O)[C@H](C)NC(=O)[C@H](Cc1c[nH]c2ccccc12)NC(=O)[C@H](CCC(N)=O)NC(=O)[C@@H](Cc1ccccc1)NC(=O)CN1CCC(NC(=O)CN2CCN(CC(=O)O)CCN(CC(=O)O)CCN(CC(=O)O)CC2)CC1)C(C)C [[^68Ga]Ga-LW02080, metal not drawn] | 7.36 %ID/g |

Exam item: What value of tissue uptake at 1 h has been reported for the following compound? CC(C)C[C@H](NC(=O)[C@H](Cc1cnc[nH]1)N(C)C(=O)CNC(=O)[C@@H](NC(=O)[C@H](C)NC(=O)[C@H](Cc1c[nH]c2ccccc12)NC(=O)[C@H](CCC(N)=O)NC(=O)[C@@H](Cc1ccccc1)NC(=O)CN1CCC(NC(=O)CN2CCN(CC(=O)O)CCN(CC(=O)O)CCN(CC(=O)O)CC2)CC1)C(C)(C)C)C(=O)N1CC(F)(F)C[C@H]1C(N)=O [[^68Ga]Ga-LW02060, metal not drawn]
Marked response: 16.8 %ID/g

====

Assay: Ex vivo biodistribution of 177Lu-labeled ligands in PC-3 tumor-bearing mice
Conditions: male, NOD.Cg-Rag1^tm1Mom Il2rg^tm1Wjl/SzJ (NRG), mouse, tumor/kidney, iv, total radioactivity, 1 h pi, blocked (100 µg GRPR antagonist co-injected); read-out: Tumor/kidney uptake ratio
Description: SPECT/CT imaging was conducted using an MI Labs (Houten, The Netherlands) U-SPECT-II/CT scanner with a custom-made ultra-high sensitivity big mouse collimator (2 mm pinhole size) following published procedure. The experiments were obtained in accordance with the same protocol established in the PET/CT imaging and ex vivo biodistributions section. The mice were used for SPECT/CT imaging and ex vivo biodistributions studies once the tumors reached a diameter of 5–8 mm. […]
Measured tissue to tissue ratio at 1 h, listed per entry for reference.

| compound | tissue to tissue ratio at 1 h |
| --- | --- |
| CC(C)C[C@H](NC(=O)[C@H](Cc1cnc[nH]1)N(C)C(=O)CNC(=O)[C@@H](NC(=O)[C@H](C)NC(=O)[C@H](Cc1c[nH]c2ccccc12)NC(=O)[C@H](CCC(N)=O)NC(=O)[C@@H](Cc1ccccc1)NC(=O)CN1CCC(NC(=O)CN2CCN(CC(=O)O)CCN(CC(=O)O)CCN(CC(=O)O)CC2)CC1)C(C)(C)C)C(=O)N1CC(F)(F)C[C@H]1C(N)=O [[^177Lu]Lu-LW02060, metal not drawn] | 0.89 |

Exam item: // lookup tissue to tissue ratio at 1 h for CC(C)C[C@@H](CN1CC(F)(F)C[C@H]1C(N)=O)NC(=O)[C@H](Cc1c[nH]cn1)NC(=O)CN(C)C(=O)[C@@H](NC(=O)[C@H](C)NC(=O)[C@H](Cc1c[nH]c2ccccc12)NC(=O)[C@H](CCC(N)=O)NC(=O)[C@@H](Cc1ccccc1)NC(=O)CN1CCC(NC(=O)CN2CCN(CC(=O)O)CCN(CC(=O)O)CCN(CC(=O)O)CC2)CC1)C(C)C [[^177Lu]Lu-LW02080, metal not drawn]
Marked response: 0.52

====

assay: Ex vivo biodistribution of 177Lu-labeled ligands in PC-3 tumor-bearing mice; conditions: male, NOD.Cg-Rag1^tm1Mom Il2rg^tm1Wjl/SzJ (NRG), mouse, tumor/blood, iv, total radioactivity, 4 h pi, n = 5; read-out: Tumor/blood uptake ratio
Reported tissue to tissue ratio at 4 h values are given for each entry in this list.
Answer field: number only, no words.

| molecule | quantitative readout |
| --- | --- |
| CC(C)C[C@@H](CN1CC(F)(F)C[C@H]1C(N)=O)NC(=O)[C@H](Cc1c[nH]cn1)NC(=O)CN(C)C(=O)[C@@H](NC(=O)[C@H](C)NC(=O)[C@H](Cc1c[nH]c2ccccc12)NC(=O)[C@H](CCC(N)=O)NC(=O)[C@@H](Cc1ccccc1)NC(=O)CN1CCC(NC(=O)CN2CCN(CC(=O)O)CCN(CC(=O)O)CCN(CC(=O)O)CC2)CC1)C(C)C [[^177Lu]Lu-LW02080, metal not drawn] | 136 |

We next turn to a different molecule, shown below.
Exam item: // tissue to tissue ratio at 4 h lookup, key: CC(C)C[C@H](NC(=O)[C@H](Cc1cnc[nH]1)N(C)C(=O)CNC(=O)[C@@H](NC(=O)[C@H](C)NC(=O)[C@H](Cc1c[nH]c2ccccc12)NC(=O)[C@H](CCC(N)=O)NC(=O)[C@@H](Cc1ccccc1)NC(=O)CN1CCC(NC(=O)CN2CCN(CC(=O)O)CCN(CC(=O)O)CCN(CC(=O)O)CC2)CC1)C(C)(C)C)C(=O)N1CC(F)(F)C[C@H]1C(N)=O [[^177Lu]Lu-LW02060, metal not drawn]
Marked response: 144

====

Form field: tissue uptake at 1 h (one value per entry).
test: Ex vivo biodistribution of 68Ga-labeled tracers in PC-3 tumor-bearing mice; conditions: mouse, spleen, intravenous; 1 h pi, n = 4; read-out: Spleen uptake
# output: bare number, implied unit %ID/g

Exam item: Name the reported tissue uptake at 1 h value associated with the compound CC(C)C[C@H](NC(=O)[C@H](Cc1cnc[nH]1)N(C)C(=O)CNC(=O)[C@@H](NC(=O)[C@H](C)NC(=O)[C@H](Cc1c[nH]c2ccccc12)NC(=O)[C@H](CCC(N)=O)NC(=O)[C@@H](Cc1ccccc1)NC(=O)CN1CCC(NC(=O)CN2CCN(CC(=O)O)CCN(CC(=O)O)CCN(CC(=O)O)CC2)CC1)C(C)(C)C)C(=O)N1CC(F)(F)C[C@H]1C(N)=O [[^68Ga]Ga-LW02060, metal not drawn]
Marked response: 0.24

Exam item: Next entry: CC(C)C[C@@H](CN1CC(F)(F)C[C@H]1C(N)=O)NC(=O)[C@H](Cc1c[nH]cn1)NC(=O)CN(C)C(=O)[C@@H](NC(=O)[C@H](C)NC(=O)[C@H](Cc1c[nH]c2ccccc12)NC(=O)[C@H](CCC(N)=O)NC(=O)[C@@H](Cc1ccccc1)NC(=O)CN1CCC(NC(=O)CN2CCN(CC(=O)O)CCN(CC(=O)O)CCN(CC(=O)O)CC2)CC1)C(C)C [[^68Ga]Ga-LW02080, metal not drawn]
Marked response: 0.18

FYI, the data here is from paper PMC11859184.
